B1: TPR t1 (parent)
chain: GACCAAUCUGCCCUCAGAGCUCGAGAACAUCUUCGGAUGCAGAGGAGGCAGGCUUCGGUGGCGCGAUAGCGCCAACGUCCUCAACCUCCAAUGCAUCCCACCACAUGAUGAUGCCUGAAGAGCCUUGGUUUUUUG

variants of: B1; test: polymerase ribozyme fitness, log enrichment relative to wild type (log ratio); higher = more active; in vitro selection for triplet polymerase activity
Each entry below carries its recorded polymerase ribozyme fitness (log ratio).
Number only, please.

Consider the reported polymerase ribozyme fitness (log ratio) for these variants:
{"columns": ["seq.string", "value.reported"],
 "data": [
  ["GACCAAUCUGCCCUCAGAGCUCGAUAACAUGUUCGGAUGCAAAGGUGGCAGGCUUCGGUGGCGCGAUAGUGCCAACGUCCUCAACCUCCAAUGCAUCCCACCACAUGAUUAUGCCUGAAGAGCCUUGUUUUUUUG [G25U C31G G42A A46U C70U G110U G128U]", -6.32],
  ["GACCAAUCUGCCCUCAGAGCUCCAGAACAUCUUCGGAUGCAGAGGAGGCAGGCUUCGGUGGCGCGAUAACGCCAACGUCCUCAACCUCCAAUGCAUCCCACCACAUGAUGAUGCCUGAAGAGCCUUGGUUUUUUG [G23C G69A]", -7.97],
  ["GACCAAUCUGCCCUCAGAGCUCGAGAACAUCUUCGGAUGCAGAGGAGGCAGGCUUCGGUGGCGCGAUAGCGCCAACGUCCUCAACCUCAAAUGCAUCCCACCACAUGAUGAUGGCUGAAGAGCCUUGGUUUUUUG [C89A C114G]", -2.82],
  ["GACCAAUCUGCCCUCAGAGCCCGAGAACUUCUUCGGAUGCAGAGGAGGCAGGCUUCGGUGGCGCGAUAGCGCCAACGUCCUCACCCUCCAAUGCAUCCCACCACAUGAUGAAGCCUGAGCAGCCUUGGUUUUUUG [U21C A29U A84C U112A A119G G120C]", -0.885],
  ["GACCAAUCUGCCCUCAGAGCUCGAGAACAUCUUCGGAUGCAGAGGAGGCAGGCUGAGGUGGCGCGAUAGCGCCAACGUCCUCAACCUCCAAUGCAUCCCACCACAUGAUGAUGCCUGAAGAGCCUUGGUUUUUUG [U55G C56A]", -0.837]
]}

For the next question, use this variant.
Qu. Report polymerase ribozyme fitness (log ratio), nothing else, for this variant: GACCAAUCAGCCCUCAGAGCUCGAGAACAUCUUCGGAUGCAGAGGAGGCAGGCUUCGGUGGCGCGAUAGCGCCAACGCCCUCAACCUCCAAUGCAACCCACCACAUGAUGAUGCCUGAAGAGCUUUGGUUUUUUG [U9A U78C U96A C124U]
Ans. 1.26
